Test: Metabolic stability in Sprague-Dawley rat liver microsomes after 15 mins
Format: ADME, Microsome
Conditions: read-out: Stability
measured-attribute: remaining at 0.25 h (%)
Write the number in % without appending the unit.

## Input Quick one: remaining at 0.25 h for Cn1c(C(C)(C)C)c/c(=N\C(=O)c2cccc(C(F)(F)F)c2F)n1CC1CC1 ?
## Output 86

---

Assay: AUC (0 to 8 hrs) in Sprague-Dawley rat at 10 mg/kg, po
Type: ADME, organism-based
Set-up: time < 8 hr, dose 10 mg/kg, route oral
Settings: plasma
measured-attribute: AUC(0-t) at 8 h
Returns: string containing the numeric result and its unit.

## Input // AUC(0-t) at 8 h lookup, key: Cn1c(C(C)(C)C)c/c(=N\C(=O)c2cccc(C(F)(F)F)c2F)n1CC1CC1
## Output 2160 ng·h/mL
